# system tested: T1, TNFR1 (Homo sapiens, UniProt P19438)
# T1 chain: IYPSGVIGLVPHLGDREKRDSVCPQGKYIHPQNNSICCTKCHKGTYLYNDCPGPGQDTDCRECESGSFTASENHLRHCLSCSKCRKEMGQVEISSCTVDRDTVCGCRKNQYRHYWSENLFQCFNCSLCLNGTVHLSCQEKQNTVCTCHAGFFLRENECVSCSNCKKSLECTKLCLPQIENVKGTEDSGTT
# method summary: yeast display SC50
apparent Kd (screen) listing for selected binders.
quantity name: apparent Kd (screen) (pM)

| binder | measured |
| --- | --- |
| A47K (designed binder) SMEEEVEKAAKEYEKKKKEAIEKHLEKLKAKDKEAAERFLKELEEAKKEYAKDEAKTMSEEEAKRRAKKYKEKVLLSELSEEEQKEIKEAEEKLVRTILKYVEEAAK | 490 |
| A10G (designed binder) SMEEEVEKAGKEYEKKKKEAIEKHLEKLKAKDKEAAERFLKELEEAAKEYAKDEAKTMSEEEAKRRAKKYKEKVLLSELSEEEQKEIKEAEEKLVRTILKYVEEAAK | 446 |
| V6S (designed binder) SMEEESEKAAKEYEKKKKEAIEKHLEKLKAKDKEAAERFLKELEEAAKEYAKDEAKTMSEEEAKRRAKKYKEKVLLSELSEEEQKEIKEAEEKLVRTILKYVEEAAK | 1400 |
| K64G (designed binder) SMEEEVEKAAKEYEKKKKEAIEKHLEKLKAKDKEAAERFLKELEEAAKEYAKDEAKTMSEEEAGRRAKKYKEKVLLSELSEEEQKEIKEAEEKLVRTILKYVEEAAK | 490 |
| K100Q (designed binder) SMEEEVEKAAKEYEKKKKEAIEKHLEKLKAKDKEAAERFLKELEEAAKEYAKDEAKTMSEEEAKRRAKKYKEKVLLSELSEEEQKEIKEAEEKLVRTILQYVEEAAK | 539 |
| D32W (designed binder) SMEEEVEKAAKEYEKKKKEAIEKHLEKLKAKWKEAAERFLKELEEAAKEYAKDEAKTMSEEEAKRRAKKYKEKVLLSELSEEEQKEIKEAEEKLVRTILKYVEEAAK | 22200 |
| K107C (designed binder) SMEEEVEKAAKEYEKKKKEAIEKHLEKLKAKDKEAAERFLKELEEAAKEYAKDEAKTMSEEEAKRRAKKYKEKVLLSELSEEEQKEIKEAEEKLVRTILKYVEEAAC | 2730 |
| E12Q (designed binder) SMEEEVEKAAKQYEKKKKEAIEKHLEKLKAKDKEAAERFLKELEEAAKEYAKDEAKTMSEEEAKRRAKKYKEKVLLSELSEEEQKEIKEAEEKLVRTILKYVEEAAK | 956 |
